- Test system: SNB-19 CNS
- TEST DESCRIPTION: NCI tumour cell line growth inhibition, 48 h
MEASURED METRIC: TGI

Illustrative cases are given below, each with its answer.
| COMPOUND | MEASURED METRIC | RESULT |
| --- | --- | --- |
| O=C1C=C(NCCc2cc(Br)c(O)c(Br)c2)C(=O)c2ncccc21 | TGI | 8.77 µM |
| C1=Cc2nc1c(-c1ccncc1)c1ccc([n-]1)c(-c1ccncc1)c1nc(c(-c3ccncc3)c3ccc([n-]3)c2-c2ccncc2)C=C1.[Zn+2] | TGI | > 100 µM |
| NS(=O)(=O)c1ccc(N2N=C3c4ccccc4CC3C2c2ccc(Cl)cc2)cc1 (stereo not drawn) | TGI | > 100 µM |
| COC(=O)C(Cl)=C1CC1 | TGI | > 100 µM |
| CCCCn1c2c(n(CCCC)c1=S)-c1c(n(CCCC)c(=S)n1CCCC)SSSS2 | TGI | > 100 µM |

Would you be so kind as to report TGI for each listed record?
1. Cn1cc(C2=C(c3cn(CCN)c4ccccc34)C(=O)NC2=O)c2ccccc21
2. Nc1c(-c2ccc(Cl)cc2Cl)[n+]([O-])c2ccccc2[n+]1[O-]

Result:
> 25 µM
> 100 µM

Problem: What TGI appears in the records for this compound with SNB-19 CNS? Cc1c2c(n(Cc3ccccn3)c1C)NN=C(C#N)S2(=O)=O
Result: > 100 µM

Attribution: PubChem BioAssay (NCI)
